Could you please report measured inhibition for the items listed next?
Target: 5'-AMP-activated protein kinase catalytic subunit alpha-2 (Homo sapiens)
Conditions: at 1 µM
Description: GSK_PKIS: AMPKA2 (A2B1G1) mean inhibition at 1 uM [Nanosyn]
Number only, in %; omit the unit.

Input line: Report measured inhibition; entry is `COC(=O)Nc1nc2ccc(Oc3ccc(NC(=O)Nc4cccc(Cl)c4)cc3)cc2[nH]1`
Output line: 2.32

Input line: Report measured inhibition; entry is `CS(=O)(=O)CCNCc1ccc(-c2ccc3ncnc(Nc4ccc(OCc5ccccc5)c(C(F)(F)F)c4)c3c2)o1`
Output line: 3.87

Input line: Report measured inhibition; entry is `NC(=O)c1sc(-n2cnc3ccc(C(F)(F)F)cc32)cc1OCc1ccccc1Br`
Output line: 3.78

Input line: Report measured inhibition; entry is `c1cc(-c2cnn3nc(N4CCOCC4)ccc23)nc(NC2CC2)n1`
Output line: 7.62

Input line: Report measured inhibition; entry is `O=C(O[C@H]1CN[C@H](C#Cc2cc3ncnc(Nc4ccc(Cc5ccccc5)cc4)c3s2)C1)N1CCOCC1`
Output line: 1.84

Input line: Report measured inhibition; entry is `CN(C)CCOc1ccc(-c2nc(-c3ccncc3)c(-c3ccc4c(c3)CC/C4=N\O)[nH]2)cc1`
Output line: 2.75

====

Biological target: Non-receptor tyrosine-protein kinase TYK2 (Homo sapiens) (UniProt P29597);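 also: each value is a mean of the inhibition readings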
Sequence (P29597 whole entry): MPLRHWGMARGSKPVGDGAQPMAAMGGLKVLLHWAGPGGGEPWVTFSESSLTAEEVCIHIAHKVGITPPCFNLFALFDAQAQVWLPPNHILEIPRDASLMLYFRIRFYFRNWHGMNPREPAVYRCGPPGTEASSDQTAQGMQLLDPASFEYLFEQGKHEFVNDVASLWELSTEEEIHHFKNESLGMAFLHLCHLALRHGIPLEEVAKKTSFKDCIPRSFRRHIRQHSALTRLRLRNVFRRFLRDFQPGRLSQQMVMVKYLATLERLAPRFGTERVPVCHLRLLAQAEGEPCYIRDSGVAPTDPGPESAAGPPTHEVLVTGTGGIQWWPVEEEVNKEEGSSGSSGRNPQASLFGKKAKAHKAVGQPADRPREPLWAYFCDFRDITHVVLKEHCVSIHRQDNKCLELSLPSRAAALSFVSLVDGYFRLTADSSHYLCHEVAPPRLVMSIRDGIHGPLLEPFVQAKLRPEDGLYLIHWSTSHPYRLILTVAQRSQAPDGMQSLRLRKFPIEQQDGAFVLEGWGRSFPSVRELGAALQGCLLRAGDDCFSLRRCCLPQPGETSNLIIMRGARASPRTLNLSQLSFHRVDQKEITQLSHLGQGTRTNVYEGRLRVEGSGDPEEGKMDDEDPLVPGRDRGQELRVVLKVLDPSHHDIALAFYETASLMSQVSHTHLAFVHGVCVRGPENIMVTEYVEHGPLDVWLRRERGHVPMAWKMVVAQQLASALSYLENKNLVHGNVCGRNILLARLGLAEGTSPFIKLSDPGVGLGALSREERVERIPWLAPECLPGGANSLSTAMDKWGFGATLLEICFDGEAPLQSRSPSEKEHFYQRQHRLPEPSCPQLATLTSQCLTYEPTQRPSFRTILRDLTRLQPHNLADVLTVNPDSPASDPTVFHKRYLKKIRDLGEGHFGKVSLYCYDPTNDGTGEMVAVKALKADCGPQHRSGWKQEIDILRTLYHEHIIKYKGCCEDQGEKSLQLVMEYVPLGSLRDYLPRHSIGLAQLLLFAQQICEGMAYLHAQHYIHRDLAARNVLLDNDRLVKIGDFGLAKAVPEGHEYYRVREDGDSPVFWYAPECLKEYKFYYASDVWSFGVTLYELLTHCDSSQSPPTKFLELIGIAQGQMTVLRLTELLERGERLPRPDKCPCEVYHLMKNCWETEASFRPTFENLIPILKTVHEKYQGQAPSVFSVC
Conditions: at 0.1 µM
assay-readout: inhibition (%)
Number only, in %; omit the unit.

Input line: Report measured inhibition; entry is `CCOc1ccc2c(-c3ccnc(Nc4cccc(C(F)(F)F)c4)n3)cnn2n1`
Output line: -0.74

Input line: Report measured inhibition; entry is `COc1ccc(-c2nn3ncccc3c2-c2ccnc(Nc3ccc4c(c3)OCCO4)n2)cc1`
Output line: -1.16

Input line: Report measured inhibition; entry is `CNC(=O)c1cncc(/C=C/c2ccccc2Cl)c1`
Output line: 2.63

Input line: Report measured inhibition; entry is `N#Cc1c(NC(=O)c2ccc(F)cc2)sc2c1CCCC2`
Output line: -3.45

Input line: Report measured inhibition; entry is `Cc1ccc(O)cc1Nc1ccnc2cc(-c3ccccn3)ccc12`
Output line: -4.79

Input line: Report measured inhibition; entry is `Fc1cccc(COc2ccc(Nc3ncnc4sc(-c5ccco5)cc34)cc2Cl)c1`
Output line: -2.62

Input line: Report measured inhibition; entry is `COc1ccc(-c2cc3c(N)ncnc3o2)cc1`
Output line: -0.95

Input line: Report measured inhibition; entry is `Fc1ccc(-c2cc(-c3c[nH]nc3-c3ccccn3)ccn2)cc1`
Output line: -1.71

Input line: Report measured inhibition; entry is `CNC(=O)c1cc(-c2ccc(F)cc2)cc(-c2ccc(S(=O)(=O)N3CCCC3)cc2)c1N`
Output line: -3.89

Input line: Report measured inhibition; entry is `COC(=O)Nc1nc2ccc(S(=O)(=O)c3ccc(NC(=O)Nc4cc(C(F)(F)F)ccc4F)cc3)cc2[nH]1`
Output line: -1.55

Input line: Report measured inhibition; entry is `Nc1nc(-c2cccc(Cl)c2)c(-c2ccc3ncccc3n2)s1`
Output line: -3.11

Input line: Report measured inhibition; entry is `Fc1ccc(-c2nn3ncccc3c2-c2ccnc(Nc3ccc4c(c3)OCCO4)n2)cc1`
Output line: -8.76

Input line: Report measured inhibition; entry is `Nc1ncc(-c2cccc(S(N)(=O)=O)c2)c2scc(-c3ccc(F)c(Cl)c3)c12`
Output line: -1.25

Input line: Report measured inhibition; entry is `FC(F)(F)c1cccc(-c2nn3ncccc3c2-c2ccnc(Nc3ccc4c(c3)OCCO4)n2)c1`
Output line: -2.27
